TGT: T1, GFP-9S library array, motif 4 ND N98R;D124K (synthetic construct, N98R;D124K)
T1 chain: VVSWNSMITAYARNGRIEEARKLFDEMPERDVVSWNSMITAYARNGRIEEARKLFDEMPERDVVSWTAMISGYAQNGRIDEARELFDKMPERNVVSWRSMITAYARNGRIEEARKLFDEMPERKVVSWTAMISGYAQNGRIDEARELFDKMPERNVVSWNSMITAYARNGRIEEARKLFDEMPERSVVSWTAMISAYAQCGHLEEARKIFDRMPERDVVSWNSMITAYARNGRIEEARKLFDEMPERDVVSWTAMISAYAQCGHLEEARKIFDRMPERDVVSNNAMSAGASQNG
ASSAY DETAILS: high-throughput RNA pulldown from lysate on Ni-NTA beads; HRP: 50 mM Tris pH 8, 150 mM NaCl, 1 mM beta-mercaptoethanol, 50 ug/ml BSA, 3 ug/ml yeast RNA, 0.5% heparin; ITC and FP: Tris pH 8, 200 mM KCl, 5% glycerol; MST: 50 mM Tris pH 8, 200 mM NaCl, 1 mM DTT, BSA, heparin, 0.05% Tween 20
SETTINGS: tags: N-terminal His-eGFP; label: 5' IRDye 800CW
Kindly state Kd for each of the entries shown.
Record the value in nM, omitting the unit from your answer.

Which Kd is reported for this binder? AUUAAACGUGA (ssRNA) [IR-rpoA-A]
420

Which Kd is reported for this binder? AUUAUACGUGA (ssRNA) [IR-rpoA-U]
202

Data origin: paper PMC8809517
